Numbers sourced from PubChem BioAssay AID1996.

Entries and their solubility kinetic values follow.
# measurement.setup: buffer; pH 7.4; 200.0 µM
measured.quantity: solubility kinetic

• CCCNC(=S)N1CCC(C(=O)c2ccc(F)cc2)CC1 = > 46.3 µg/mL
• CC(C)CC(NC(N)=O)C(=O)NCCc1ccc(Cl)cc1 (centres undefined) = > 46.8 µg/mL
• O=C(O)C1CC=CCC1C(=O)Nc1ccc2c(c1)CCC2 (centres undefined) = > 42.8 µg/mL
• O=C(Cn1cnc([N+](=O)[O-])c1)NCCc1ccccc1 = > 41.1 µg/mL

====

# measurement.setup: buffer; pH 7.4; 200.0 µM
measured.quantity: solubility kinetic

• COc1ccc(NC(=S)NC2CCCCC2)c(OC)c1 = > 44.2 µg/mL
• Cc1cc(C)c(S(=O)(=O)NCc2cccnc2)c(C)c1 = > 43.6 µg/mL
• N#CCCC1CCCC=C1N(Cc1ccccc1)C(=O)C(Cl)Cl (stereo not given) = > 52.7 µg/mL
• CNc1cc(C)nc(N2CCOCC2)n1 = > 31.2 µg/mL
• O=c1[nH]c(=S)n(C2CC2)c(O)c1C=NCCN1CCOCC1 = > 48.7 µg/mL

====

# measurement.setup: buffer; pH 7.4; 200.0 µM
Would you mind labelling by solubility kinetic? At or over 6 µg/mL is fulfilled, under is not fulfilled.

* Cc1ccc(NC(=S)NC(=O)c2cccs2)cc1F | not fulfilled
* COc1ccc(C(CC(=O)N2CCCCC2)C(C)C)cc1 (stereo not given) | fulfilled
* O=C(NCCO)C(=O)c1c(-c2ccccc2)cc2ccccn12 | fulfilled
* N=c1oc2ccccc2cc1C(=O)NC1CCCCCC1 | fulfilled
* S=C(Nc1ccccc1)N1CCN(Cc2ccccc2)CC1 | fulfilled
* COc1ccc(CC2SC(=Nc3ccc(F)cc3)NC2=O)cc1 (stereo not given) | not fulfilled
* CC(NC(=O)c1cc2ccccc2oc1=O)c1ccccc1 (stereo not given) | not fulfilled
* Cn1c(-c2ccncc2)nc2ccccc21 | fulfilled
* Cc1cccc(NC(=O)COC(=O)COc2ccc3c(c2)CCC3)c1 | not fulfilled
* Cc1nonc1-c1csc(N)n1 | fulfilled

====

# measurement.setup: buffer; pH 7.4; 200.0 µM
measured.quantity: solubility kinetic (µg/mL)

- CCOC(=O)Nc1ccc(S(=O)(=O)Nc2onc(C)c2C)cc1: 47.2
- Cc1cccc(N(Cc2ccccc2)C(=O)c2ccccc2F)c1: 11.5
- Cc1sc2ncnc(SCC(=O)Nc3ccc(S(=O)(=O)N4CCOCC4)cc3)c2c1C: 5.4
- COc1ccc(NS(=O)(=O)c2c(C)cc(C)cc2C)cn1: 5.3
- COc1ccc(S(=O)(=O)Nc2ccc(Cl)cn2)cc1: 14.4

====

# measurement.setup: buffer; pH 7.4; 200.0 µM
measured.quantity: solubility kinetic

- O=C(O)Cc1ccc2oc(-c3ccccn3)nc2c1: > 38.1 µg/mL
- COc1ccc(NC(=O)c2ccccc2-c2ccccc2C(=O)O)cc1: > 52.1 µg/mL
- Cc1cc(SCC(=O)Nc2cccnc2Cl)nc2ccccc12: < 0.2 µg/mL
- N#CCSc1ccc(S(=O)(=O)N2CCOCC2)cn1: > 44.9 µg/mL

====

Entries and their solubility kinetic values follow.
# measurement.setup: buffer; pH 7.4; 200.0 µM
measured.quantity: solubility kinetic

• CCN(CC)C(=O)c1cccc(NC(=O)C2CCN(C(=O)c3cccs3)CC2)c1 = > 62 µg/mL
• C=CCn1c(O)c(C(C)=Nc2cccc(C(=O)O)c2)c(=O)[nH]c1=O = > 49.4 µg/mL
• Cc1cc(C(F)(F)F)nn1CC(=O)N(C)c1ccccc1 = > 44.6 µg/mL
• COC(=O)c1cccc(NC(=O)CSc2nnc(C)n2C)c1 = > 48.1 µg/mL
• Cc1nc(C)c(C(=O)O)c(-c2cccs2)c1C(=O)O = > 41.6 µg/mL
• CC1(C)CC(=O)C=C(N2CCOCC2)C1 = > 31.4 µg/mL
• Cc1ccc(S(=O)(=O)NC2CC2)cc1 = > 31.7 µg/mL
